Test target: Short transient receptor potential channel 6 (Mus musculus)
Run description: TRPC6 blockade by TRPC4 inhibitor hits – cell-based, HEK293, membrane potential dye, duplicate, selectivity assay for TRPC4 inhibitor project, confirmation (AID 434948)
Condition notes: HEK293 TRPC6, membrane potential dye fluorescence, at 10 µM, stimulated with maximal-effect acetylcholine
The source made the active and inactive calls.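 The calls were made as follows: active = active in primary screen and both duplicates, each dropping signal beyond three positive-control SD with fluorescence still positive; inactive = the rest.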
Give your call using only these classes: active, inactive

The examples below pair each entry with its known result.
{"Compound": "COc1ccc(F)cc1CN1CCN(C(=O)CCC(=O)Nc2nnc(C(C)C)s2)CC1", "Group": "inactive"}
{"Compound": "OCCCNc1c2ccccc2nc2ccccc12", "Group": "active"}
{"Compound": "O=C(OCC(=O)N1CCOCC1)c1cccc(S(=O)(=O)N2CCCc3ccccc32)c1", "Group": "inactive"}
{"Compound": "Cn1c(=O)c2c(nc(CN3CCc4ccccc4C3)n2Cc2ccccc2)n(C)c1=O", "Group": "inactive"}
{"Compound": "CCOC(=O)c1ccc(NC(=S)N2CCSC2c2ccc(Cl)cc2)cc1 (stereo not given)", "Group": "inactive"}

Prompt: What did this assay record as the result for Cc1ccc(NC(=O)CSCC(=O)OCc2cc(=O)oc3cc(O)ccc23)c(C)c1 ?
Completion: inactive

Prompt: What did this assay record as the result for NCCNC(=O)c1c(NC(=O)c2ccccc2)sc2c1CCCC2 ?
Completion: inactive

Prompt: What did this assay record as the result for COc1ccccc1CNCC(c1ccccc1)c1ccccc1 ?
Completion: active

Prompt: What did this assay record as the result for CCCCCCCCCCCCOC(=O)C[N+](C)(C)C ?
Completion: inactive

Prompt: What did this assay record as the result for O=C(COc1ccc(Cl)cc1)Nc1ccc(C(=O)O)cc1NC(=O)COc1ccc(Cl)cc1 ?
Completion: inactive

Prompt: What did this assay record as the result for Cc1[nH]nc(Nc2ccccc2)c1[N+](=O)[O-] ?
Completion: inactive

Prompt: What did this assay record as the result for O=C(NCc1ccccc1)c1ccc(S(=O)(=O)Nc2cccc(C(F)(F)F)c2)cc1 ?
Completion: inactive

Prompt: What did this assay record as the result for CCOc1ccc2[nH]c3c(N4CCN(c5ccccn5)CC4)ncnc3c2c1 ?
Completion: inactive

Prompt: What did this assay record as the result for c1ccc2c(c1)nnn2-c1ncnc2sc3c(c12)CCCC3 ?
Completion: inactive

Prompt: What did this assay record as the result for Cc1cc(C)nc(NC(N)=NC2CCCCC2)n1 ?
Completion: inactive

Prompt: What did this assay record as the result for COc1ccc(Cl)cc1C(=O)NCCN(C)C ?
Completion: inactive

Prompt: What did this assay record as the result for Cc1ccccc1OCCn1c(C)nc2ccccc21 ?
Completion: inactive

Prompt: What did this assay record as the result for CN(C)C(CNC(=O)c1oc2ccccc2c1CSc1ncn[nH]1)c1ccco1 (stereo not given) ?
Completion: inactive

Prompt: What did this assay record as the result for Cc1ccc(NS(=O)(=O)c2cc(C(=O)N3CCc4ccccc4C3)ccc2Cl)cc1 ?
Completion: inactive

Prompt: What did this assay record as the result for COc1ccc(C(CNC(=O)COc2ccccc2OC)N(C)C)cc1OC (stereo not given) ?
Completion: inactive

Prompt: What did this assay record as the result for N=c1c(C(=O)NCc2ccc(F)cc2)cc2c(=O)n3ccccc3nc2n1Cc1ccco1 ?
Completion: inactive

Prompt: What did this assay record as the result for CN(C)c1ccc([N+](=O)[O-])cc1C(=O)NCC(c1ccco1)N(C)C (stereo not given) ?
Completion: inactive

Prompt: What did this assay record as the result for CCCCN(CC)CCNC(=O)c1cc2c(-c3ccc(Cl)cc3)nn(C)c2s1 ?
Completion: inactive

Prompt: What did this assay record as the result for O=C(CN1CCCN(S(=O)(=O)c2ccc(F)cc2)CC1)Nc1ccccc1Br ?
Completion: inactive

Prompt: What did this assay record as the result for COc1ccc(CNc2ccc(Cl)cc2)cc1Cn1ccnc1 ?
Completion: inactive

Prompt: What did this assay record as the result for O=C1Cc2ccccc2Sc2c(OCCN3CCCCC3)cccc21 ?
Completion: inactive

Prompt: What did this assay record as the result for CN(C)CCCNc1c2ccccc2nc2ccccc12 ?
Completion: inactive
